Reported pIC50 is given for each of the following compounds.
- Tested on: pan-HDAC
- Experimental Details: Whole-cell HDAC inhibition assay in HCT116 cells
- Experimental Parameters: read-out: HDAC inhibition IC50 HCT116, HCT116, 18 hr incubation, Boc-Lys(ε-Ac)-AMC substrate
Entry type: numeric. Quantity: pIC50, the -log10 of concentration in molar units.

{"columns": ["Compound", "pIC50"],
 "data": [
  ["CC1=CCC2C(C)(C)C(=O)CC[C@@]2(C)[C@@H]1COc1ccc2ccc(=O)oc2c1 (stereo partly drawn) [Conferone (6), Conferone]", 5.97],
  ["COc1cc(C(=O)OC2C3(C)CCC(C3)C2(C)C)ccc1O (stereo not drawn) [Stylosin (19), Stylosin]", 4.83],
  ["CCC(C)SS/C=C/COC(=O)CC(C)(C)OC(C)=O (stereo not drawn) [Persicasulfide A (2), Persicasulfide A]", 5.36],
  ["CC1=CC(OC2OC(CO)C(O)C(O)C2O)C2C(C)(C)C(=O)CC[C@@]2(C)[C@@H]1COc1ccc2ccc(=O)oc2c1 (stereo partly drawn) [Conferoside (10), Conferoside]", 5.00]
]}

If you can, please state the reported pIC50 value of C=C1CCC(=O)C(C)(C)[C@H]1CC/C(C)=C/COc1ccc2ccc(=O)oc2c1 [Farnesiferone B (5), Farnesiferone B] .
4.39

----------
- Tested on: human cancer cell lines (HeLa, HCT116, A2780 and A549)
- Experimental Details: AlamarBlue cytotoxicity, summary over the four cancer cell lines
- Type: cell-based
- Experimental Parameters: collective range, read-out: Cytotoxic activity IC50 against cancer cells (range over cell lines and compounds)
Property: IC50

So what does the record say about IC50 for CC1=CCC2C(C)(C)C(=O)CC[C@@]2(C)[C@@H]1COc1ccc2ccc(=O)oc2c1 (stereo partly shown) [Conferone (6), Conferone] ?
< 50 µM

----------
Items are presented alongside their recorded pIC50.
- Test system: HCT116 cells
- Experimental Details: AlamarBlue cytotoxicity assay, HCT116
- Assay type: cell-based
- Experimental Parameters: Homo sapiens, HCT-116, 48 hr treatment
# pIC50: negative log10 of molar concentration; output just the value

The cases that follow already have their pIC50 on record.
{"columns": ["Compound", "Test Target", "pIC50"],
 "data": [
  ["C=C1CCC(=O)C(C)(C)[C@H]1CC/C(C)=C/COc1ccc2ccc(=O)oc2c1", "HCT116 cells", 4.30],
  ["C/C=C(/C)C(=O)OC/C=C\\SSC(C)CC (stereo not drawn) [Latisulfide C (15), Latisulfide C]", "HCT116 cells", 4.33],
  ["COc1cc(C(=O)OC2C3(C)CCC(C3)C2(C)C)ccc1O (stereo not drawn)", "HCT116 cells", 4.38],
  ["CC1=CCC2C(C)(C)C(=O)CC[C@@]2(C)[C@@H]1COc1ccc2ccc(=O)oc2c1 (stereo partly drawn)", "HCT116 cells", 4.50],
  ["CCC(C)SS/C=C/COC(=O)CC(C)(C)OC(C)=O (stereo not drawn) [Persicasulfide A (2), Persicasulfide A]", "HCT116 cells", 4.94],
  ["CC1=CC(=O)C2C(C)(C)C(=O)CC[C@@]2(C)[C@@H]1COc1ccc2ccc(=O)oc2c1 (stereo partly drawn)", "HCT116 cells", 4.29]
]}

For the compound CC1=CC[C@@H]2C(C)(C)[C@H](O)CC[C@@]2(C)[C@@H]1COc1ccc2ccc(=O)oc2c1 , what pIC50 is on record?
4.55

Entry CCC(C)SS/C=C\COC(=O)/C=C/c1ccc(O)c(OC)c1 (stereo not drawn) [Latisulfide E (17), Latisulfide E] : reported pIC50 = ?
4.24

Param item = CC1=CC(=O)[C@@H]2C(C)(C)[C@H](O)CC[C@@]2(C)[C@@H]1COc1ccc2ccc(=O)oc2c1 ; retrieve measured pIC50.
4.16

Value lookup for pIC50; key = CC1=CC(OC2OC(CO)C(O)C(O)C2O)C2C(C)(C)C(=O)CC[C@@]2(C)[C@@H]1COc1ccc2ccc(=O)oc2c1 (stereo partly drawn) [Conferoside (10), Conferoside]
4.45
